# Experimental target: NAD-dependent protein deacetylase sirtuin-2 (Homo sapiens, UniProt Q8IXJ6)
# Experiment description: Inhibition of recombinant human C-terminal His-tagged SIRT2 (50 to 389 end residues) expressed in Escherichia coli using p53 derived (379 to 382 residues) fluorogenic peptide substrate RHKK(Ac)-AMC preincubated for 10 mins followed by substrate addition in presence of NAD+ by fluorescence assay
pIC50: −log10 of the molar value.
Endpoint name: pIC50

Compound	Experimental target	Measured value
O=c1c2c3c(sc2ncn1Cc1ccc2ccccc2c1)CC(NCCc1ccncc1)CC3 (stereo not given)	NAD-dependent protein deacetylase sirtuin-2 (Homo sapiens, UniProt Q8IXJ6)	5.02
COc1ccc2ccccc2c1Cn1cnc2sc3c(c2c1=O)CCC(NCc1c(C)noc1C)C3 (stereo not given)	NAD-dependent protein deacetylase sirtuin-2 (Homo sapiens, UniProt Q8IXJ6)	5.40
COc1ccccc1CNC1CCc2c(sc3ncn(Cc4c(OC)ccc5ccccc45)c(=O)c23)C1 (stereo not given)	NAD-dependent protein deacetylase sirtuin-2 (Homo sapiens, UniProt Q8IXJ6)	5.65
O=c1c2c3c(sc2ncn1Cc1cccc2cccnc12)CC(NCc1cccc(Cl)c1)CC3 (stereo not given)	NAD-dependent protein deacetylase sirtuin-2 (Homo sapiens, UniProt Q8IXJ6)	5.55
COc1ccc2ccccc2c1Cn1cnc2sc3c(c2c1=O)CCC(NCc1ccncc1)C3 (stereo not given)	NAD-dependent protein deacetylase sirtuin-2 (Homo sapiens, UniProt Q8IXJ6)	5.92
COc1ccccc1CNC1CCc2c(sc3ncn(Cc4cccc5cccnc45)c(=O)c23)C1 (stereo not given)	NAD-dependent protein deacetylase sirtuin-2 (Homo sapiens, UniProt Q8IXJ6)	5.25
O=c1c2c3c(sc2ncn1Cc1cccc2ccccc12)CC(NCc1cccnc1)CC3 (stereo not given)	NAD-dependent protein deacetylase sirtuin-2 (Homo sapiens, UniProt Q8IXJ6)	5.52
O=c1c2c3c(sc2ncn1Cc1cccc(-c2ccccc2)c1)CC(NCCN1CCCC1)CC3 (stereo not given)	NAD-dependent protein deacetylase sirtuin-2 (Homo sapiens, UniProt Q8IXJ6)	5.42
O=c1c2c3c(sc2ncn1Cc1cccc2cccnc12)CC(NC1CCCc2ccccc21)CC3 (stereo not given)	NAD-dependent protein deacetylase sirtuin-2 (Homo sapiens, UniProt Q8IXJ6)	5.26
COc1ccc(Cn2cnc3sc4c(c3c2=O)CCC(NC2CCCC2)C4)c2ccccc12 (stereo not given)	NAD-dependent protein deacetylase sirtuin-2 (Homo sapiens, UniProt Q8IXJ6)	6.14
O=c1c2c3c(sc2ncn1Cc1cccc2ccccc12)CC(NCC1CCCO1)CC3 (stereo not given)	NAD-dependent protein deacetylase sirtuin-2 (Homo sapiens, UniProt Q8IXJ6)	4.90
O=c1c2c3c(sc2ncn1Cc1cccc2ccccc12)CC(NCCc1cccnc1)CC3 (stereo not given)	NAD-dependent protein deacetylase sirtuin-2 (Homo sapiens, UniProt Q8IXJ6)	5.02
Cc1ccc(NC2CCc3c(sc4ncn(Cc5cccc6cccnc56)c(=O)c34)C2)cc1 (stereo not given)	NAD-dependent protein deacetylase sirtuin-2 (Homo sapiens, UniProt Q8IXJ6)	5.37
COc1ccc(CNC2CCc3c(sc4ncn(Cc5c(OC)ccc6ccccc56)c(=O)c34)C2)cc1 (stereo not given)	NAD-dependent protein deacetylase sirtuin-2 (Homo sapiens, UniProt Q8IXJ6)	6.19
O=c1c2c3c(sc2ncn1Cc1ccc2ccccc2c1)CC(NCc1ccccn1)CC3 (stereo not given)	NAD-dependent protein deacetylase sirtuin-2 (Homo sapiens, UniProt Q8IXJ6)	5.06
COc1ccc2ccccc2c1Cn1cnc2sc3c(c2c1=O)CCC(NCc1ccccc1)C3 (stereo not given)	NAD-dependent protein deacetylase sirtuin-2 (Homo sapiens, UniProt Q8IXJ6)	4.68
COc1ccc(CNCCc2sc3ncn(Cc4c(OC)ccc5ccccc45)c(=O)c3c2C)cc1	NAD-dependent protein deacetylase sirtuin-2 (Homo sapiens, UniProt Q8IXJ6)	5.47
O=c1c2c3c(sc2ncn1Cc1ccc2ccccc2c1)CC(NCc1ccncc1)CC3 (stereo not given)	NAD-dependent protein deacetylase sirtuin-2 (Homo sapiens, UniProt Q8IXJ6)	5.50
O=c1c2c3c(sc2ncn1Cc1cccc(-c2ccccc2)c1)CC(NC1CCOCC1)CC3 (stereo not given)	NAD-dependent protein deacetylase sirtuin-2 (Homo sapiens, UniProt Q8IXJ6)	5.76
O=c1c2c3c(sc2ncn1Cc1ccc2ccccc2c1)CC(NCc1ccccc1)CC3 (stereo not given)	NAD-dependent protein deacetylase sirtuin-2 (Homo sapiens, UniProt Q8IXJ6)	5.26

----------
# Experimental target: NAD-dependent protein deacetylase sirtuin-2 (Homo sapiens)
# Experiment description: Inhibition of recombinant human C-terminal His-tagged SIRT2 (50 to 389 end residues) expressed in Escherichia coli at 10 uM using p53 derived (379 to 382 residues) fluorogenic peptide substrate RHKK(Ac)-AMC preincubated for 10 mins followed by substrate addition in presence of NAD+ by fluorescence assay relative to control

Compound	Unit label	inhibition
COc1ccc(CNC2CCc3c(sc4ncn(Cc5cccc(OC)c5)c(=O)c34)C2)cc1 (centres undefined)	%	71
O=c1c2c3c(sc2ncn1Cc1ccc2ccccc2c1)CC(NC1CCOCC1)CC3 (centres undefined)	%	52
COc1ccc(Cn2cnc3sc4c(c3c2=O)CCC(NCc2cccc(Cl)c2)C4)c2ccccc12 (centres undefined)	%	6.5
O=c1c2c3c(sc2ncn1Cc1ccc2ccccc2c1)CC(NCc1ccco1)CC3 (centres undefined)	%	72
Cc1cccc(NC2CCc3c(sc4ncn(Cc5cccc(-c6ccccc6)c5)c(=O)c34)C2)c1 (centres undefined)	%	28
Cc1noc(C)c1CNC1CCc2c(sc3ncn(Cc4cccc5cccnc45)c(=O)c23)C1 (centres undefined)	%	80
COc1ccccc1Cn1cnc2sc3c(c2c1=O)CCC(NCc1c(C)nn(C)c1C)C3 (centres undefined)	%	37
O=c1c2c3c(sc2ncn1Cc1cccc(-c2ccccc2)c1)CC(NC1CCc2ccccc21)CC3 (centres undefined)	%	45
COc1ccccc1CCNC1CCc2c(sc3ncn(Cc4cccc5cccnc45)c(=O)c23)C1 (centres undefined)	%	63

----------
# Experimental target: NAD-dependent protein deacetylase sirtuin-2 (Homo sapiens, UniProt Q8IXJ6)
# Sequence (Q8IXJ6 whole entry): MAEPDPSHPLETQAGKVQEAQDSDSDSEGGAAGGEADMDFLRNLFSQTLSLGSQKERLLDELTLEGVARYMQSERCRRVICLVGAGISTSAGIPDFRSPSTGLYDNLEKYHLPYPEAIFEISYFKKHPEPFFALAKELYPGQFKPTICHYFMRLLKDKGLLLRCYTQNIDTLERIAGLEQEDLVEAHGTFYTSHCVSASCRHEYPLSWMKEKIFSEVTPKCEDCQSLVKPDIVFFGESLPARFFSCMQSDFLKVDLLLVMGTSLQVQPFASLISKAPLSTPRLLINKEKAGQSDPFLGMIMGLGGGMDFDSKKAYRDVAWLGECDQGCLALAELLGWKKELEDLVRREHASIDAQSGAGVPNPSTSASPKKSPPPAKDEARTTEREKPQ
# Experiment description: Inhibition of recombinant human C-terminal His-tagged SIRT2 (50 to 389 end residues) expressed in Escherichia coli in presence of NAD+ by enzyme coupled SIRT-Glo assay
pIC50: −log10 of the molar value.

Compound	pIC50
COc1ccc2ccccc2c1Cn1cnc2sc3c(c2c1=O)CCC(NCc1cccnc1)C3 (stereo unspecified)	6.77

----------
# Experimental target: NAD-dependent protein deacetylase sirtuin-2 (Homo sapiens) (UniProt Q8IXJ6)
# Experiment description: Inhibition of recombinant human C-terminal His-tagged SIRT2 (50 to 389 end residues) expressed in Escherichia coli at 10 uM using p53 derived (379 to 382 residues) fluorogenic peptide substrate RHKK(Ac)-AMC preincubated for 10 mins followed by substrate addition in presence of NAD+ by fluorescence assay relative to control
Endpoint name: inhibition (%)

Compound	Measured value
COc1ccc(CNC2CCc3c(sc4ncn(Cc5ccccc5OC)c(=O)c34)C2)cc1 (stereo not given)	67
COc1ccc2ccccc2c1Cn1cnc2sc3c(c2c1=O)CCC(NCC1CCCCC1)C3 (stereo not given)	97
COc1ccccc1Cn1cnc2sc3c(c2c1=O)CCC(NCC1CCCCC1)C3 (stereo not given)	79
O=c1c2c3c(sc2ncn1Cc1ccccc1)CC(NCc1ccccn1)CC3 (stereo not given)	26
COCCNC1CCc2c(sc3ncn(Cc4cccc5cccnc45)c(=O)c23)C1 (stereo not given)	41

----------
# Experimental target: NAD-dependent protein deacetylase sirtuin-3, mitochondrial (Homo sapiens, UniProt Q9NTG7)
# Sequence (Q9NTG7 whole entry, the tested form may be a part): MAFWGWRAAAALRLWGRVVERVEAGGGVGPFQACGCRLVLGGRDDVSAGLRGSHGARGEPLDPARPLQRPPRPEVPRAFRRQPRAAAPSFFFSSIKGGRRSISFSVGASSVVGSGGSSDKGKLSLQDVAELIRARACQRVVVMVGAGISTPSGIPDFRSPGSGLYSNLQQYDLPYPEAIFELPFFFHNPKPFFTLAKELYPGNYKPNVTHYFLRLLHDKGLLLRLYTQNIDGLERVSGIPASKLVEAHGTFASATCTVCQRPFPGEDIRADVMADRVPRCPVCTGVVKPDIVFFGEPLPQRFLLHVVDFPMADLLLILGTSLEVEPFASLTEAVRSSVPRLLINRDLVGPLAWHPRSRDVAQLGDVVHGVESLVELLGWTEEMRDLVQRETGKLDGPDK
# Experiment description: Inhibition of recombinant human N-terminal GST-tagged SIRT3 (101 to 399 residues) expressed in Escherichia coli using p53 derived (379 to 382 residues) fluorogenic peptide substrate RHKK(Ac)-AMC) preincubated for 10 mins followed by substrate addition in presence of NAD+ by fluorescence assay
pIC50: −log10 of the molar value.

Molecule	pIC50
COc1ccc(Cn2cnc3sc4c(c3c2=O)CCC(NCc2c(C)noc2C)C4)c2ccccc12 (stereo not drawn)	4.74
N#Cc1ccc(CNC2CCc3c(sc4ncn(Cc5cccc6cccnc56)c(=O)c34)C2)cc1 (stereo not drawn)	< 4.00
COc1ccc2ccccc2c1Cn1cnc2sc3c(c2c1=O)CCC(NCc1cccnc1)C3 (stereo not drawn)	< 4.00

----------
# Experimental target: NAD-dependent protein deacetylase sirtuin-2 (Homo sapiens) (UniProt Q8IXJ6)
# Experiment description: Inhibition of recombinant human C-terminal His-tagged SIRT2 (50 to 389 end residues) expressed in Escherichia coli at 10 uM using p53 derived (379 to 382 residues) fluorogenic peptide substrate RHKK(Ac)-AMC preincubated for 10 mins followed by substrate addition in presence of NAD+ by fluorescence assay relative to control
Reported values of inhibition for individual entries
Endpoint name: inhibition (%)

Compound	Endpoint name	Measured value
COc1ccc(CNC2CCc3c(sc4ncn(Cc5ccc6ccccc6c5)c(=O)c34)C2)cc1 (stereo not given)	inhibition	86
O=c1c2c3c(sc2ncn1Cc1cccc2cccnc12)CC(NC1CCc2ccccc21)CC3 (stereo not given)	inhibition	91
COc1ccccc1Cn1cnc2sc3c(c2c1=O)CCC(NCC1CCCO1)C3 (stereo not given)	inhibition	27
Cc1cccc(NC2CCc3c(sc4ncn(Cc5cccc6ccccc56)c(=O)c34)C2)c1 (stereo not given)	inhibition	41
Cc1cccc(NC2CCc3c(sc4ncn(Cc5cccc6cccnc56)c(=O)c34)C2)c1 (stereo not given)	inhibition	62
O=c1c2c3c(sc2ncn1Cc1ccccc1)CC(NCc1ccncc1)CC3 (stereo not given)	inhibition	33
COc1ccc2ccccc2c1Cn1cnc2sc(CCNCc3ccncc3)c(C)c2c1=O	inhibition	94
Cc1cccc(NC2CCc3c(sc4ncn(Cc5ccc6ccccc6c5)c(=O)c34)C2)c1 (stereo not given)	inhibition	31
COc1ccc2ccccc2c1Cn1cnc2sc3c(c2c1=O)CCC(NCc1cccc(Cl)c1)C3 (stereo not given)	inhibition	50
COc1ccccc1CNC1CCc2c(sc3ncn(Cc4ccccc4OC)c(=O)c23)C1 (stereo not given)	inhibition	72
O=c1c2c3c(sc2ncn1Cc1cccc2cccnc12)CC(Nc1ccc2c(c1)OCO2)CC3 (stereo not given)	inhibition	76
O=c1c2c3c(sc2ncn1Cc1cccc2cccnc12)CC(NC1CCCC1)CC3 (stereo not given)	inhibition	30
COc1cccc(CNC2CCc3c(sc4ncn(Cc5cccc6cccnc56)c(=O)c34)C2)c1 (stereo not given)	inhibition	78
O=c1c2c3c(sc2ncn1Cc1cccc(-c2ccccc2)c1)CC(NCCN1CCOCC1)CC3 (stereo not given)	inhibition	77
COc1cccc(Cn2cnc3sc4c(c3c2=O)CCC(NCCc2ccncc2)C4)c1 (stereo not given)	inhibition	39
O=c1c2c3c(sc2ncn1Cc1cccc2ccccc12)CC(NCc1ccco1)CC3 (stereo not given)	inhibition	70
O=c1c2c3c(sc2ncn1Cc1ccccc1)CC(NCc1ccccc1)CC3 (stereo not given)	inhibition	57
COc1cccc(NC2CCc3c(sc4ncn(Cc5ccc(OC)c6ccccc56)c(=O)c34)C2)c1 (stereo not given)	inhibition	25
O=c1c2c3c(sc2ncn1Cc1ccc2ccccc2c1)CC(NC1CCCc2ccccc21)CC3 (stereo not given)	inhibition	37
COc1cccc(Cn2cnc3sc4c(c3c2=O)CCC(NCc2ccccc2Cl)C4)c1 (stereo not given)	inhibition	68
